# ASSAY_PROCEDURE: Plasma pharmacokinetics and total colon tissue distribution in mice, single oral administration
# Format: in vivo, C57BL/6 mice
# RUN_PARAMETERS: male, C57BL/6, mouse, 5 mg/kg, read-out: Median plasma concentration
# concentration at 12 h listing for each entry below
Your answer should be a plain number; it is taken to be in ng/mL.

>>> value_observed("C#Cc1cc(Nc2nccc(Oc3ccc(NC(=O)Nc4cc(C(C)(C)C)cc(NS(C)(=O)=O)c4OC)c4ccccc34)n2)cc(C(=O)NCCOCCOCCOC)c1 [Example 16]")
0

Shifting focus to the molecule that follows.
Need concentration at 12 h, item COCCOCCOCCNC(=O)c1cc(Nc2cc(Oc3ccc(NC(=O)Nc4cc(C(C)(C)C)cc(NS(C)(=O)=O)c4OC)c4ccccc34)ccn2)cc(OC)c1 [Example 3]
0

---

# Test system: PBMCs
# ASSAY_PROCEDURE: Cell mitosis assay in PBMCs
# Assay type: cell-based
# RUN_PARAMETERS: Homo sapiens, PBMC, 5 μg/mL
# Text: Peripheral blood mononucleocytes (PBMCs) from healthy subjects are separated from whole blood (Quintiles, London, UK) using a density gradient (Histopaque®-1077, Sigma-Aldrich, Poole, UK). […] Fluorescence is observed using an ATTUNE flow cytometer (Invitrogen, Paisley, UK), gating for lymphocytes.
QUANTITY: inhibition at 5 µg/mL (%)
Report the value in % with no unit label.

>>> value_observed("COCCOCCOCCOc1cc(Nc2cc(Oc3ccc(NC(=O)Nc4cc(C(C)(C)C)cc(NS(C)(=O)=O)c4OC)c4ccccc34)ccn2)cc(OC)c1")
33.5

Field: inhibition at 5 µg/mL (PBMCs). Entry: C#Cc1cc(Nc2nccc(Oc3ccc(NC(=O)Nc4cc(C(C)(C)C)cc(NS(C)(=O)=O)c4OC)c4ccccc34)n2)cc(C(=O)N[C@@H](C)CN2CCOCC2)c1
42.1

Field entry: COCCOCCOCCOc1cc(Nc2nccc(Oc3ccc(NC(=O)Nc4cc(NS(C)(=O)=O)cc(C(C)(C)C)c4)c4ccccc34)n2)cc(OC)c1
22.5

Same thing, different molecule: COc1cc(Nc2cc(Oc3ccc(NC(=O)Nc4cc(C(C)(C)C)cc(NS(C)(=O)=O)c4OC)c4ccccc34)ccn2)cc(C(=O)NCCN2CCS(=O)(=O)CC2)c1
41

What would you report for COc1cc(Nc2cc(Oc3ccc(NC(=O)Nc4cc(C(C)(C)C)cc(NS(C)(=O)=O)c4OC)c4ccccc34)ccn2)cc(C(=O)NCCN2CCOCC2)c1 ?
49.8

Same read-out for COc1cc(Nc2cc(Oc3ccc(NC(=O)Nc4cc(C(C)(C)C)cc(NS(C)(=O)=O)c4OC)c4ccccc34)ccn2)cc(C(=O)NCCCN2CCOCC2)c1 ?
66.6

Try the molecule COc1cc(Nc2nccc(Oc3ccc(NC(=O)Nc4cc(C(C)(C)C)cc(NS(C)(=O)=O)c4OC)c4ccccc34)n2)cc(OCCOCCOCCN2CCOCC2)c1
92.7

---

# ASSAY_PROCEDURE: Plasma pharmacokinetics in rats, single intravenous or oral administration
# Assay type: in vivo
# RUN_PARAMETERS: male, Wistar, rat, po, 5 mg/kg, read-out: Median plasma concentration
Collected concentration at 24 h values appear next to each entry.
Expressed in ng/mL, but write only the number.

>>> value_observed("COCCOCCOCCNC(=O)c1cc(Nc2cc(Oc3ccc(NC(=O)Nc4cc(C(C)(C)C)cc(NS(C)(=O)=O)c4OC)c4ccccc34)ccn2)cc(OC)c1")
0

Turning now to a further record.
So what's the measured concentration at 24 h for this one? C#Cc1cc(Nc2nccc(Oc3ccc(NC(=O)Nc4cc(C(C)(C)C)cc(NS(C)(=O)=O)c4OC)c4ccccc34)n2)cc(C(=O)NCCOCCOCCOC)c1
0

---

# ASSAY_PROCEDURE: Plasma pharmacokinetics in rats, single intravenous or oral administration
# Assay type: in vivo
# RUN_PARAMETERS: male, Wistar, rat, po, 5 mg/kg, read-out: Median plasma concentration
# Protocol: Studies were conducted by Sai Life Sciences (Hinjewadi, Pune, India) to investigate the plasma pharmacokinetics and total colon tissue distribution of compounds of the invention. In particular, pharmacokinetic studies were carried out in: • male C57BL/6 mice, following a single oral administration; and • male Wistar rats following a single intravenous or oral administration.
QUANTITY: concentration at 8 h

>>> value_observed("COCCOCCOCCNC(=O)c1cc(Nc2cc(Oc3ccc(NC(=O)Nc4cc(C(C)(C)C)cc(NS(C)(=O)=O)c4OC)c4ccccc34)ccn2)cc(OC)c1")
"0 ng/mL"

For the next question, use this compound.
I am curious: what concentration at 8 h value has been reported for C#Cc1cc(Nc2nccc(Oc3ccc(NC(=O)Nc4cc(C(C)(C)C)cc(NS(C)(=O)=O)c4OC)c4ccccc34)n2)cc(C(=O)NCCOCCOCCOC)c1 ?
0 ng/mL

---

Each entry below lists one item and its recorded concentration at 8 h value.
# ASSAY_PROCEDURE: Plasma pharmacokinetics and total colon tissue distribution in mice, single oral administration
# Type: in vivo, C57BL/6 mice
# RUN_PARAMETERS: male, C57BL/6, mouse, 5 mg/kg, read-out: Median plasma concentration
Write the number in ng/mL without appending the unit.

>>> value_observed("COCCOCCOCCNC(=O)c1cc(Nc2cc(Oc3ccc(NC(=O)Nc4cc(C(C)(C)C)cc(NS(C)(=O)=O)c4OC)c4ccccc34)ccn2)cc(OC)c1")
0

Kindly review the next compound as well.
Consider the compound C#Cc1cc(Nc2nccc(Oc3ccc(NC(=O)Nc4cc(C(C)(C)C)cc(NS(C)(=O)=O)c4OC)c4ccccc34)n2)cc(C(=O)NCCOCCOCCOC)c1 and give its measured concentration at 8 h.
0

---

# ASSAY_PROCEDURE: Plasma pharmacokinetics and total colon tissue distribution in mice, single oral administration
# Type: in vivo, C57BL/6 mice
# RUN_PARAMETERS: male, C57BL/6, mouse, 5 mg/kg, read-out: Median plasma concentration
Recorded measurements of concentration at 24 h, one per entry
Give your result in µg/mL as a bare value.

>>> value_observed("C#Cc1cc(Nc2nccc(Oc3ccc(NC(=O)Nc4cc(C(C)(C)C)cc(NS(C)(=O)=O)c4OC)c4ccccc34)n2)cc(C(=O)NCCOCCOCCOC)c1 [Example 16]")
0

# input for lookup
Which concentration at 24 h value is on record for COCCOCCOCCNC(=O)c1cc(Nc2cc(Oc3ccc(NC(=O)Nc4cc(C(C)(C)C)cc(NS(C)(=O)=O)c4OC)c4ccccc34)ccn2)cc(OC)c1 [Example 3] ?
0

---

Listing of recorded concentration at 2 h by entry.
# ASSAY_PROCEDURE: Plasma pharmacokinetics in rats, single intravenous or oral administration
# Type: in vivo
# RUN_PARAMETERS: male, Wistar, rat, po, 5 mg/kg, read-out: Median plasma concentration
Provide only the numeric value, understood in ng/mL.

>>> value_observed("COCCOCCOCCNC(=O)c1cc(Nc2cc(Oc3ccc(NC(=O)Nc4cc(C(C)(C)C)cc(NS(C)(=O)=O)c4OC)c4ccccc34)ccn2)cc(OC)c1 [Example 3]")
0

Please look at the following compound next.
Data request, read-out concentration at 2 h, for C#Cc1cc(Nc2nccc(Oc3ccc(NC(=O)Nc4cc(C(C)(C)C)cc(NS(C)(=O)=O)c4OC)c4ccccc34)n2)cc(C(=O)NCCOCCOCCOC)c1 [Example 16]
0

---

Parameter inhibition at 5 µg/mL: see the listing below.
# System: PBMCs
# ASSAY_PROCEDURE: Cell mitosis assay in PBMCs
# Format: cell-based
# RUN_PARAMETERS: Homo sapiens, PBMC, 5 μg/mL
Please respond with the number in % and leave the unit unwritten.

Example entries and their recorded answers appear below.
>>> value_observed("C#Cc1cc(Nc2cc(Oc3ccc(NC(=O)Nc4cc(C(C)(C)C)cc(C(N)=O)c4OC)c4ccccc34)ccn2)cc(C(=O)NCCN2CCOCC2)c1 [Example 48]")
44.2
>>> value_observed("COc1cc(Nc2cc(Oc3ccc(NC(=O)Nc4cc(C(C)(C)C)cc(NS(C)(=O)=O)c4OC)c4ccccc34)ccn2)cc(C(=O)NCC(=O)N2CCOCC2)c1 [85(a)]")
46.3
>>> value_observed("C#Cc1cc(Nc2nccc(Oc3ccc(NC(=O)Nc4cc(F)cc(N5CCOCC5)c4)c4ccccc34)n2)cc(C(=O)NCCN2CCOCC2)c1 [Example 2]")
4
>>> value_observed("COc1cc(CO)cc(Nc2cc(Oc3ccc(NC(=O)Nc4cc(C(C)(C)C)cc(C(N)=O)c4OC)c4ccccc34)ccn2)c1 [84(g)]")
84.6
>>> value_observed("C#Cc1cc(Nc2cc(Oc3ccc(NC(=O)Nc4cc(C(C)(C)C)cc(C(=O)NC)c4OC)c4ccccc34)ccn2)cc(C(=O)NCCN2CCOCC2)c1 [Example 39]")
34.7
>>> value_observed("COCCOCCOCCOc1cc(Nc2nccc(Oc3ccc(NC(=O)Nc4cc(C(C)(C)C)cc(C(=O)NCC(=O)OC)c4OC)c4ccccc34)n2)cc(OC)c1 [Example 37]")
45.9
>>> value_observed("C#Cc1cc(Nc2cc(Oc3ccc(NC(=O)Nc4cc(C(C)(C)C)cc(NS(C)(=O)=O)c4OC)c4ccccc34)ccn2)cc(C(=O)NCCN2CCOCC2)c1 [Example 49]")
40.1
>>> value_observed("COc1cc(Nc2cc(Oc3ccc(NC(=O)Nc4cc(C(C)(C)C)cc(NS(C)(=O)=O)c4OC)c4ccccc34)ccn2)cc(C(=O)NCC(C)(C)N2CCOCC2)c1 [85(h)]")
27.5

Reported inhibition at 5 µg/mL, molecule COCCOCCOCCOc1cc(Nc2nccc(Oc3ccc(NC(=O)Nc4cc(C(C)(C)C)cc(-c5nnco5)c4OC)c4ccccc34)n2)cc(OC)c1 [Example 59] : ____
55.3

Next: COc1cc(Nc2cc(Oc3ccc(NC(=O)Nc4cc(C(C)(C)C)cc(C(N)=O)c4OC)c4ccccc34)ccn2)cc(C(=O)NCCN2CCOCC2)c1 [Example 47]
59.1

Please give the result for C#Cc1cc(Nc2cc(Oc3ccc(NC(=O)Nc4cc(C(C)(C)C)cc(NS(C)(=O)=O)c4OC)c4ccccc34)ccn2)cc(C(=O)NCCCN2CCOCC2)c1 [85(d)] too.
33.2

Next entry: COc1c(NC(=O)Nc2ccc(Oc3ccnc(Nc4ccccc4)c3)c3ccccc23)cc(C(C)(C)C)cc1C(=O)NC1COC1 [Example 75]
42.6
